Values compiled from the RNAGym collection of RNA variant scans (doi:10.7554/elife.80360).

# self-cleavage per entry
B1: Hairpin Ribozyme (parent)
chain: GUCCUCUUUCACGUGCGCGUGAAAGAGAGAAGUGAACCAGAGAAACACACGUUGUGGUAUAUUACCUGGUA

- Variants of: B1
- ASSAY_EXPLANATION: self-cleavage, relative activity (ratio to wild type); higher = more cleavage; co-transcriptional
ENDPOINT: self-cleavage

> print(dat)
                            monomer.sequence       endpoint  numeric.readout
 1  GUCCUCUUUCACGUGCGCGUGAAAGAGAGAAGUGAACCAGAGAAACACACGUUGUGGAAUAUUACCCGGUA [U58A U67C]  self-cleavage            0.118
 2  GUCCUCUUUCACGUGCGCGUGAAAGAGAGACGUGAACCAGAGAAACACACGUUGUGGUAGAUUACCUGGUA [A31C U60G]  self-cleavage            0.194
 3  GUCCUCUUUCACGUGCGCGUGAAAGAGAGAAGUGAAGCAGAGAAACACACGUUGUGGUAUAUUACCCGGUA [C37G U67C]  self-cleavage            0.167
 4  GUCCUCUUUCACGUGCGCGUGAAAGAGAGAAGUGAACCAGAGAAAGACACGUUAUGGUAUAUUACCUGGUA [C46G G54A]  self-cleavage            0.134
 5  GUCCUCUUUCACGUGCGCGUGAAAGAGAGAAGUGAACCAGAGAAACAAACGUUGUGGUAUAUUAACUGGUA [C48A C65A]  self-cleavage            0.131
 6  GUCCUCUUUCACGUGCUCGUGAAAGAGAGAAGUGAACCAGAGAAACACACGUUGUGGUAUAGUACCUGGUA [G17U U62G]  self-cleavage            0.122
 7  GUCCUCCUUCACGUGCGCGUGAAAGAGAGAAGUGAUCCAGAGAAACACACGUUGUGGUAUAUUACCUGGUA [U7C A36U]  self-cleavage            0.466
 8  GUCCUCUAUCACGUGCGCGUGCAAGAGAGAAGUGAACCAGAGAAACACACGUUGUGGUAUAUUACCUGGUA [U8A A22C]  self-cleavage            0.594
 9  GUCCUCUUUCACGUGCGCGUGAAAGAGAGAAGUGAACCGGAGAAACACACGUUGUGGUAUAUUACGUGGUA [A39G C66G]  self-cleavage           0.0926
10  GUCCUCUUUCACGUGCGCGUGAAAGAAAGAAGUGAACCAGAGAAACACACGUUGUGGUAUAUUACCUGUUA [G27A G69U]  self-cleavage            0.182
11  GUCCUCUUUCACGUGCGCGUGAAAGAGAGAAGUGAACCAGAGAAACACACGUUGUGGUAUACUACCUGCUA [U62C G69C]  self-cleavage           0.0631
12  GUCCUCUUUCACGUGUGCGUGAAAGAGAGAAGUGAACCAGAGAAACACACGUUGUGGUAUAUUACCUCGUA [C16U G68C]  self-cleavage             0.22
13  GUCCUCUUUCACGUGCGCGUGAAAGAGAGAAGUGAACCAGAGAACCACACGUUGUGGAAUAUUACCUGGUA [A45C U58A]  self-cleavage            0.309
14  GUCCUCUUUCACGUGCGCGAGAAAGAGAGAAGUGAACCAGAGAAACACACGUUGUGGUACAUUACCUGGUA [U20A U60C]  self-cleavage            0.995
15  GUCCUCUUUCACGUGCGCGUGAAAGAGAGAACUGGACCAGAGAAACACACGUUGUGGUAUAUUACCUGGUA [G32C A35G]  self-cleavage            0.146
16  GUCCUCUUUCACGUGCGCGUGAAAGAGAGAAGUGAACCGGAGAAACACACGUUGUUGUAUAUUACCUGGUA [A39G G56U]  self-cleavage           0.0978
17  GUCCUCUUUCUCGUGCGCGUGAAAGAGAGAAGUGAACCAGAGAAACACACGUUUUGGUAUAUUACCUGGUA [A11U G54U]  self-cleavage            0.565
18  GUCCUCUUUCACGUGCGAGUGAAAGAGAGAAGUGAACCAGAGAAACACACGUUGUGGUACAUUACCUGGUA [C18A U60C]  self-cleavage              1.1
19  GUCCUCUUUCACGUGCGCGUGAAAGAGAGAAGUAAACCAGAGAAACACACGUUGGGGUAUAUUACCUGGUA [G34A U55G]  self-cleavage            0.541
20  GUCCUCUUUCACGUGGGCGUGAAAGAGAGAAGUGAACCAGAGAAACACACGUUCUGGUAUAUUACCUGGUA [C16G G54C]  self-cleavage            0.393
21  GUCCUCUUUCACGUGCGCGUGAAAGAGAGAAGUGAACCAGAGAAACACACGUUGUGUUAUAUUACUUGGUA [G57U C66U]  self-cleavage            0.244
22  GUCCUCUUUCACGUGCGCGUGAAAGAGAGAAGUGAACCAGCGAAACACACGUUGUGGUAUAUUUCCUGGUA [A41C A64U]  self-cleavage            0.267
23  UUCCUCUUUCACGUGCGCGUGAAAGAGAGAUGUGAACCAGAGAAACACACGUUGUGGUAUAUUACCUGGUA [G1U A31U]  self-cleavage           0.0996
24  GUCCUCUUUCACGUGCGCGUGAAAGAGAGAAGUUAACCAGAGAAACACACGUUGUGGUAUAUUACCGGGUA [G34U U67G]  self-cleavage            0.658
25  GUCCUCUUUGACGUGCGCGUGAAAGAGAGAAGUGAACCAGAGAAACGCACGUUGUGGUAUAUUACCUGGUA [C10G A47G]  self-cleavage            0.177
26  GUCCUCUUUCACGUGCGCGUGAAAGAGAGAAGUCAACCAGAGAAACACACGUUGUGGUAUAUUACCUUGUA [G34C G68U]  self-cleavage            0.658
27  GUCCUCUUUCACGUGCGCGUGAGAGGGAGAAGUGAACCAGAGAAACACACGUUGUGGUAUAUUACCUGGUA [A23G A26G]  self-cleavage            0.648
28  GUCCUCUUUCACGUGCGCAUGAAAGAGAGAAGUGAACCCGAGAAACACACGUUGUGGUAUAUUACCUGGUA [G19A A39C]  self-cleavage            0.437
29  GUCCUCUUUCACGUGCGCGUGAAAGAGAGAAAUGAACCAGAGAAACACAAGUUGUGGUAUAUUACCUGGUA [G32A C50A]  self-cleavage            0.168
30  GUCCUCUUUCAGGUGCGCGUGAAAGAGAGAAGUGAACCAGAGAAACACACGUUGUGGUAUAUUACCGGGUA [C12G U67G]  self-cleavage            0.215
31  GUCCUCAUUCACGUGCGCGUGAAAGAGAGAAGUGAACCAGAGAAACACACUUUGUGGUAUAUUACCUGGUA [U7A G51U]  self-cleavage            0.866
32  GUCCUCUAUCACGUGCGCGUGAAAGAGAGAAGUGAACCAGAGAAACACACGUUCUGGUAUAUUACCUGGUA [U8A G54C]  self-cleavage            0.284
33  GUCGUCUUUCACGUGCGCGUGAAAGAGAGAAGUGAACCAGAGAAACACACGUUGAGGUAUAUUACCUGGUA [C4G U55A]  self-cleavage            0.119
34  GUCCUCUUUAACGUGCGGGUGAAAGAGAGAAGUGAACCAGAGAAACACACGUUGUGGUAUAUUACCUGGUA [C10A C18G]  self-cleavage            0.791
35  UUCCUCUUUCACGUGCGCGUGAAAGAGAGAAGUGAACCAGAGAAACACACGUUGUGGUAUACUACCUGGUA [G1U U62C]  self-cleavage            0.172
36  GUCCUCUUUCACGUGAGCGUGAAAGAGAGAGGUGAACCAGAGAAACACACGUUGUGGUAUAUUACCUGGUA [C16A A31G]  self-cleavage            0.536
37  GUCCUCUUACACGUGCGCGUGAAAGAGAGAAGUGAACCAGAGAAACACACGUUGUGAUAUAUUACCUGGUA [U9A G57A]  self-cleavage            0.141
38  GUCCUCUUUCACGUGCGCGUGAAAGUGAGAAGUGAACCAGAGUAACACACGUUGUGGUAUAUUACCUGGUA [A26U A43U]  self-cleavage            0.139
39  GGCCUCUUUCACGUGCGCGUGAAAGAGAGAAGUGAACCAGAGAAACACACGUUGUGGUAUAUUACCUGGUA [U2G]  self-cleavage            0.348
40  GUCCUCUUUCACGUGCGCGUGAAAGAGAGAAGUGAACCAGAGAAACACACGUUGUGGUAUCUUACCUGGUA [A61C]  self-cleavage            0.214
41  GUCCUCUUUCACGUGCGCGUGACAGAGAGAAGUGAACCAGAGAAAGACACGUUGUGGUAUAUUACCUGGUA [A23C C46G]  self-cleavage            0.092
42  GUCCUCUCUCACGUGCUCGUGAAAGAGAGAAGUGAACCAGAGAAACACACGUUGUGGUAUAUUACCUGGUA [U8C G17U]  self-cleavage            0.554
43  GUCCUCUUUCACGUGCGCGUGAAAGAGUGGAGUGAACCAGAGAAACACACGUUGUGGUAUAUUACCUGGUA [A28U A30G]  self-cleavage           0.0577
44  GUCUUCUUUCACGUGCGCGUGAAAGAGAGAAGUGAACCAUAGAAACACACGUUGUGGUAUAUUACCUGGUA [C4U G40U]  self-cleavage           0.0478
45  GUCCUCUUUCACGUGCGCGUGAAAGAGAAAAGUGAACCAGAGACACACACGUUGUGGUAUAUUACCUGGUA [G29A A44C]  self-cleavage             0.17
46  GUCCUCUUUCACGUCCGCGUGAAAGAGAGAAGUGAACCAGAGAAGCACACGUUGUGGUAUAUUACCUGGUA [G15C A45G]  self-cleavage            0.194
